# Test system: P.gingivalis
# Assay Procedure: minimum inhibitory concentration (MIC), method of diffusion in agar
# Assay type: cell-based
Measurement Name: Minimum inhibitory concentration (%)
# number only, unit % dropped from output

Guide cases for Minimum inhibitory concentration (%), answers given:
INSERT INTO assay_data (molecule, measurement_name, val) VALUES
  ('Oc1cc(Cl)ccc1Oc1ccc(Cl)cc1Cl [Triclosan, 5-chloro-2-(2,4-dichlorophenoxy)-phenol]', 'Minimum inhibitory concentration (%)', 0.004),
  ('[H]/N=C(\N/C(=N/[H])NCCCCCCNC(=N)NC(=N)Nc1ccc(Cl)cc1)Nc1ccc(Cl)cc1 [Chlorhexidine]', 'Minimum inhibitory concentration (%)', 0.002),
  ('CCCCC(CC)CN1CN(CC(CC)CCCC)CC(C)(N)C1 (centres unmarked) [Hexetidine]', 'Minimum inhibitory concentration (%)', 0.001),
  ('O=S(=O)([O-])[O-].[Zn+2] [Zn^++, sulphate]', 'Minimum inhibitory concentration (%)', 0.5);

# ---- query molecule ----
Asked: Which Minimum inhibitory concentration (%) is reported for this molecule? O=C([O-])[C@H](O)[C@@H](O)[C@H](O)[C@H](O)CO.O=C([O-])[C@H](O)[C@@H](O)[C@H](O)[C@H](O)CO.[Cu+2] [Cu^++ gluconate]
Given back: 0.06
